# targetOrTestSystem: Leucine aminopeptidase (Plasmodium falciparum (isolate 3D7)) (UniProt Q8IL11)
# Sequence (Q8IL11 whole entry, looked up): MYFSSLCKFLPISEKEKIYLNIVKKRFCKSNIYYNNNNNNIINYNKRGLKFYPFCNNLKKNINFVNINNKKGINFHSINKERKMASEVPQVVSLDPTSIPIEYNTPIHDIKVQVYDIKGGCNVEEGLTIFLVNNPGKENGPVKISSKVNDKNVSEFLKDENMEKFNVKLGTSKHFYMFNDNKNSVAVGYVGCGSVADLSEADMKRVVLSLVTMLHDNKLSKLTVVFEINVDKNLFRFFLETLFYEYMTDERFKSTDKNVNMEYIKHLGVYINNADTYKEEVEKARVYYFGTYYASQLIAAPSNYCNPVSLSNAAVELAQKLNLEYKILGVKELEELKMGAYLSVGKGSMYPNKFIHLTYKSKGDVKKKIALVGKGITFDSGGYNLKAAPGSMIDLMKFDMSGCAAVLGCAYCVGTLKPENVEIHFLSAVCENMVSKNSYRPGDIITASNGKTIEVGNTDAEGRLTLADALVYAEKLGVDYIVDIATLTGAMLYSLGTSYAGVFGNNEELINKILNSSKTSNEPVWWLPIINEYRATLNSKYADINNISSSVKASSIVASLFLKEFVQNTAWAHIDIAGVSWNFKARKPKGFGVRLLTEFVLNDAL
# assayName: P. falciparum M17LAP inhibitors, primary screen, biochemical, fluorogenic H-Leu-NHMec substrate, 1536-well (AID 1619);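 also: plate controls were full reaction with DMSO carrier for no effect and no enzyme background for full effect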
# conditionDescription: recombinant M17LAP, H-Leu-NHMec fluorogenic kinetic assay; at 30 µM; stronger effect = higher value
The campaign covered roughly 220,000 compounds. About 830 (0.38%) were called active. These entries were drawn from the full list. Entries with a potency or affinity are not part of this list.
measuredQuantity: inhibition (%)

molecule	readoutNumber
O=C(N=C1c2ccccc2CN1c1ccc(F)c(F)c1)c1cccnc1	3.87
Cc1cccc(NC(=O)CSc2nnc(-c3ccccc3)n2N)c1C	1.89
CCCNC(=O)c1cccc(NC(=O)C(C)C)c1	-3.07
O=C1C2CC=C(Cl)CC2C(=O)N1CCC[n+]1ccccc1 (stereo not given)	-3.64
Cc1onc(-c2ccccc2)c1C(=O)NNC(=S)NC(=O)c1ccc(Br)cc1	44.1
